organism: Rattus norvegicus; test: Open TG-GATES - Regimen: Single; format: toxicity, organism-based, Sprague-Dawley; set-up: regimen Single, gender Male, age 6 weeks; settings: in vivo, po, 100 mg/kg, 24 h, tissue Blood, route gavage, dose level High
Below, each entry is listed with its recorded Ret.
observed-property: Ret (%)

chem_smiles=CN(C)CCCN1c2ccccc2CCc2ccc(Cl)cc21 observed_property=Ret unit_name=% value_reported=7.4
chem_smiles=CC1=C(/C=C/C(C)=C/C=C/C(C)=C/CO)C(C)(C)CCC1 observed_property=Ret unit_name=% value_reported=7.3
chem_smiles=CN(C)CCCN1c2ccccc2CCc2ccccc21 observed_property=Ret unit_name=% value_reported=7.3
chem_smiles=CN(C)CCN(Cc1cccs1)c1ccccn1 observed_property=Ret unit_name=% value_reported=7

====

organism: Rattus norvegicus; assay: Open TG-GATES - Regimen: Single; format: toxicity, organism-based, Sprague-Dawley; design: regimen Single, gender Male, age 6 weeks; conditions: in vivo, po, 10 mg/kg, 3 h, tissue Plasma, route gavage, dose level Low
Below, each entry is listed with its recorded DBIL.
observed-property: DBIL

compound="CC(C)OC(=O)C(C)(C)Oc1ccc(C(=O)c2ccc(Cl)cc2)cc1 [FENOFIBRATE]" value_reported="0.01 mg/dL"
compound=CN(C)CCCN1c2ccccc2CCc2ccc(Cl)cc21 value_reported="0.01 mg/dL"
compound=CC1=C(/C=C/C(C)=C/C=C/C(C)=C/CO)C(C)(C)CCC1 value_reported="0 mg/dL"
compound=CN(C)CCN(Cc1cccs1)c1ccccn1 value_reported="0.002 mg/dL"
compound=CN(C)CCCN1c2ccccc2CCc2ccccc21 value_reported="0.01 mg/dL"

====

species on record: Rattus norvegicus; assay: Open TG-GATES - Regimen: Daily Repeat; assay type: toxicity, organism-based, Sprague-Dawley; set-up: regimen Daily Repeat, gender Male, age 6 weeks; settings: in vivo, po, 0 mg/kg, […], route gavage, dose level Control, time 14 day
observed-property: TERMINAL_BW

compound=CC1=C(/C=C/C(C)=C/C=C/C(C)=C/CO)C(C)(C)CCC1 value_reported="301.9 g"
compound=NNC(=O)c1ccncc1 value_reported="294 g"
compound="CCCNC(=O)NS(=O)(=O)c1ccc(Cl)cc1 [CHLORPROPAMIDE]" value_reported="307.1 g"
compound="COc1ccc2[nH]c([S+]([O-])Cc3ncc(C)c(OC)c3C)nc2c1 (stereo not given)" value_reported="317.5 g"
compound=CN(C)CCN(Cc1cccs1)c1ccccn1 value_reported="277 g"
compound="CC(C)OC(=O)C(C)(C)Oc1ccc(C(=O)c2ccc(Cl)cc2)cc1 [FENOFIBRATE]" value_reported="310.8 g"
compound=CN1C(=O)CN=C(c2ccccc2)c2cc(Cl)ccc21 value_reported="333.2 g"
compound=O=C(CCCN1CCC(O)(c2ccc(Cl)cc2)CC1)c1ccc(F)cc1 value_reported="307.2 g"
compound=CN(C)CCCN1c2ccccc2CCc2ccccc21 value_reported="328.3 g"
compound=COC1=CC(=O)C[C@@H](C)[C@]12Oc1c(Cl)c(OC)cc(OC)c1C2=O value_reported="310.7 g"

====

species on record: Rattus norvegicus; assay: Open TG-GATES - Regimen: Single; format: toxicity, organism-based, Sprague-Dawley; parameters: regimen Single, gender Male, age 6 weeks; conditions: in vivo, po, 300 mg/kg, 9 h, tissue Plasma, route gavage, dose level Middle
observed-property: Na (meq/L)

compound="CCOC(=O)CCC(=O)O[C@H]1[C@H](O[C@@H]2[C@@H](C)[C@H](O[C@H]3C[C@@](C)(OC)[C@@H](O)[C@H](C)O3)[C@@H](C)C(=O)O[C@H](CC)[C@@](C)(O)[C@H](O)[C@@H](C)C(=O)[C@H](C)C[C@@]2(C)O)O[C@H](C)C[C@@H]1N(C)C [ERYTHROMYCIN ETHYLSUCCINATE]" value_reported=138.8
compound="COc1ccc2[nH]c([S+]([O-])Cc3ncc(C)c(OC)c3C)nc2c1 (centres undefined)" value_reported=140.8
compound=NC(N)=Nc1nc(CSCCC(N)=NS(N)(=O)=O)cs1 value_reported=140.2
compound=COC1=CC(=O)C[C@@H](C)[C@]12Oc1c(Cl)c(OC)cc(OC)c1C2=O value_reported=141.6

Where do the numbers come from? From ChEMBL document CHEMBL3885861.
